Source listed as PubChem BioAssay (NCATS).

Biological target: Cellular tumor antigen p53 (Homo sapiens)
Experiment: Primary qHTS for small molecule compounds that upregulate eGFP-tagged delta133p53alpha (in C-terminal) cells. (AID 2060324);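 note: 0% = DMSO wells and 100% = 57.5 µM 5-azacytidine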
Conditions: NCI-H358 delta133p53alpha-eGFP (C-terminal tag), GFP fluorescence imaging, 24 h; series mostly up to 57.5 µM
Records with an inconclusive call do not appear. Activity calls are given as the source filed them. Calls come from the whole dose curve; as a rule, active = well fitted activation curve with a large enough effect; inconclusive = small, poorly fitted or top-dose-only effect; inactive = flat fitted curve, though single readings scatter.
Choose the fitting class; nothing outside active, inactive is accepted.

Consider the worked cases shown below.
> print(dat)
                                   molecule  discrete.label
1  NCC(O)(CS(=O)(=O)O)c1ccc(Cl)cc1 (configuration not stated)        inactive
2  COCCOC(=O)C1=C(C)NC(C)=C(C(=O)OC(C)C)C1c1cccc([N+](=O)[O-])c1 (configuration not stated)        inactive
3  Cc1nc(N=Nc2cc(S(=O)(=O)O)c3cc([N+](=O)[O-])cc(S(=O)(=O)O)c3c2)c(COP(=O)(O)O)c(C=O)c1O        inactive

input: Given C[C@]12CC[C@@H]3c4ccc(O)cc4CC[C@H]3[C@@H]1CC[C@@H]2O , state the outcome it received in this test.
output: inactive

input: Given CCCC[C@@]1(C2CCCC2)Cc2cc(OCC(=O)O)c(Cl)c(Cl)c2C1=O , state the outcome it received in this test.
output: inactive

---

Target: Retinal dehydrogenase 2 (Homo sapiens) (UniProt O94788)
Assay: qHTS for Inhibitors of the Aldehyde Dehydrogenase Family (ALDH1A2) Confirmation screens (AID 2061314); note: nearly all actives have a fitted effect of over 65% in size
Conditions: ALDH1A2 enzyme inhibition qHTS confirmation; series mostly up to 45.9 µM
Results filed as inconclusive are left out. Calls of active or inactive are those of the source. Calls follow the shape of the dose curve; as a rule, active = well fitted inhibition curve with a large enough effect; inconclusive = small, poorly fitted or top-dose-only effect; inactive = no such curve, though single readings can be large or run the other way.
Choose the fitting class; nothing outside Y for active, N for inactive is accepted.

Consider the worked cases shown below.
> print(dat)
                                   compound  discrete.label
1  Cc1ccc(OCCn2c(CCNC(=O)c3ccc([N+](=O)[O-])cc3)nc3ccccc32)cc1               N
2  NC(Cc1c[nH]c2ccccc12)C(=O)NC(CCC(=O)O)C(=O)O (configuration not stated)               N
3  N#Cc1cccc(NC(=S)N[C@H]2CO[C@H]3[C@@H]2OC[C@@H]3n2nnnc2Oc2cccc(N3CCOCC3)c2)c1               N
4                    O=c1ccc2ccc(O)c(O)c2o1               N
5  COc1ccc(C2=Nn3c(nnc3-c3cccc(OC)c3)SC2)cc1               N

input: Given C[C@@H](N)C(=O)Nc1ccc(Cl)cc1C(=O)c1ccc[nH]1 , state the outcome it received in this test.
output: N

input: Given COc1cc(NC(=S)N2CCN(c3cccc(C(F)(F)F)c3)CC2)nc2ccccc12 , state the outcome it received in this test.
output: Y

---

Readings of activation for the listed compounds
Target: Cellular tumor antigen p53 (Homo sapiens)
Assay: Primary qHTS for small molecule compounds that upregulate eGFP-tagged delta133p53alpha (in N-terminal) cells. (AID 2060322);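 note: cells pre-induced with doxycycline then dosed without doxycycline; 0% = DMSO vehicle and 100% = reference activator; nearly all actives have a fitted effect of over 75% in size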
Conditions: NCI-H358 eGFP-delta133p53alpha fluorescence, 24 h; stronger effect = higher value
Records with an inconclusive call do not appear.
Number only, in %; omit the unit.

// below: answered compounds
COMPOUND	ENDPOINT_UNIT	READING
CC(C)[C@@](O)(c1ccc2cc(OC(F)F)c(OC(F)F)cc2c1)c1cn[nH]n1	%	-0.333
COc1cccc2c1C(=O)c1c(O)c3c(c(O)c1C2=O)C[C@@](O)(C(=O)CO)C[C@H]3O[C@H]1C[C@H](N)[C@H](O)[C@H](C)O1	%	-35.6
COc1cc(-c2cccc(O)c2)cc2c1OCO2	%	2.68
CN1CCC2(CCN3CCc4c(oc5ccccc45)C3C2)N(C)C1=O (centres undefined)	%	-14.7
CCCCCCCCCCCCCCCCCCO	%	3.35

input: // query activation value for entry CC1(C)CC[C@]2(C(=O)O[C@@H]3O[C@H](CO)[C@@H](O)[C@H](O)[C@H]3O)CC[C@]3(C)C(=CCC4[C@@]5(C)CC[C@H](O[C@@H]6O[C@H](C(=O)O)[C@@H](O)[C@H](O)[C@H]6O)[C@@](C)(CO)C5CC[C@]43C)C2C1 (some centres undefined)
output: -1.53

input: // query activation value for entry COC(=O)N(C)c1c(N)nc(-c2nn(Cc3ccccc3F)c3ncccc23)nc1N
output: -15.8

input: // query activation value for entry CCCCNc1ncc(-c2ccc(CN3CCOCC3)cn2)c(NC2CCC(O)CC2)n1 (centres undefined)
output: -4.77

---

Experiment: BET inhibitor-based combinations targeting novel dependencies in MECOM-rearranged (r) AML: UCSD-AML1 cell line (AID 2202235); note: nearly all actives have a fitted effect of over 40% in size
Details: UCSD-AML1 AML cells viability, CellTiter-Glo, 48 h; series mostly up to 46 µM
Inconclusive results are not listed. Calls of active or inactive are those of the source. Calls follow the shape of the dose curve; as a rule, active = well fitted inhibition curve with a large enough effect; inconclusive = small, poorly fitted or top-dose-only effect; inactive = no such curve, though single readings can be large or run the other way.
Choose the fitting class; nothing outside active, inactive is accepted.

Consider the worked cases shown below.
> print(dat)
                                   compound  discrete.label
1  O=c1[nH]c(=O)n(C2CCCO2)cc1F (configuration not stated)        inactive
2    Cc1cc(O)c2c(c1)C(=O)c1cc(O)cc(O)c1C2=O        inactive
3  Cc1cc(Nc2nc(N[C@@H](C)c3ccc(F)cc3)c(C#N)cc2F)n[nH]1          active
4  COCCNCc1ccc(-c2cc3nccc(Oc4ccc(NC(=O)C5(C(=O)Nc6ccc(F)cc6)CC5)cc4F)c3s2)nc1          active
5        OC(Cn1cncn1)(Cn1cncn1)c1ccc(F)cc1F        inactive

input: Given CCOC(=O)Nc1ccc(NCc2ccc(F)cc2)nc1N , state the outcome it received in this test.
output: inactive

input: Given CC(=O)OC[C@@H]1O[C@@H](n2ccc(=O)[nH]c2=O)[C@H](OC(C)=O)[C@H]1OC(C)=O , state the outcome it received in this test.
output: inactive

input: Given CO[C@@H]1COCC[C@@H]1N[C@@H]1CC[C@@](C(=O)N2CCc3ncc(C(F)(F)F)cc3C2)(C(C)C)C1 , state the outcome it received in this test.
output: inactive

input: Given CC(C)c1nn(-c2c(Cl)cccc2Cl)c2nc(Cc3ccc(OCCO)cc3)[nH]c(=O)c12 , state the outcome it received in this test.
output: active

input: Given CC(COc1ccccc1)N(CCCl)Cc1ccccc1 (configuration not stated) , state the outcome it received in this test.
output: inactive

input: Given Nc1nc2c(c(=O)[nH]1)N(C=O)[C@H](CNc1ccc(C(=O)N[C@@H](CCC(=O)O)C(=O)O)cc1)CN2 , state the outcome it received in this test.
output: inactive

input: Given O=C(Nc1cccc(Br)c1)c1cccc(S(=O)(=O)N2CCCCCC2)c1 , state the outcome it received in this test.
output: inactive

input: Given CCn1cc(C(=O)O)c(=O)c2cc(F)c(N3CCNCC3)cc21 , state the outcome it received in this test.
output: inactive

input: Given COc1cc(F)c(C(C)C)cc1-c1ccc(C(F)(F)F)cc1CN1C(=O)O[C@H](c2cc(C(F)(F)F)cc(C(F)(F)F)c2)[C@@H]1C , state the outcome it received in this test.
output: inactive

input: Given CCCOc1ccc(C(=O)OCCN(CC)CC)cc1N , state the outcome it received in this test.
output: inactive

input: Given N#CC1(c2cccc(C(=O)Nc3cc(Oc4ccc5nc(NC(=O)C6CC6)sc5n4)ccc3F)c2Cl)CC1 , state the outcome it received in this test.
output: inactive

input: Given NC(=O)NO , state the outcome it received in this test.
output: inactive

input: Given CC(=O)O[C@H]1C[C@@H]2CC[C@@H]3[C@H](CC[C@@]4(C)[C@H]3C[C@H]([N+]3(C)CCCCC3)[C@@H]4OC(C)=O)[C@@]2(C)C[C@@H]1N1CCCCC1 , state the outcome it received in this test.
output: inactive

input: Given Cc1nc(-c2ccc(OCC(C)C)c(C#N)c2)sc1C(=O)O , state the outcome it received in this test.
output: inactive

input: Given O=C(O)c1ccccc1C(=O)Nc1ccc(-c2ccccc2)cc1 , state the outcome it received in this test.
output: inactive

input: Given CN(c1ncccc1CNc1nc(Nc2ccc3c(c2)CC(=O)N3)ncc1C(F)(F)F)S(C)(=O)=O , state the outcome it received in this test.
output: active

input: Given CNC(=O)c1cccc2cc(Oc3ccnc4cc(OCC5(N)CC5)c(OC)cc34)ccc12 , state the outcome it received in this test.
output: active

---

Target: Cellular tumor antigen p53 (Homo sapiens)
Experiment: Primary qHTS for small molecule compounds that upregulate eGFP-tagged delta133p53alpha (in N-terminal) cells. (AID 2060322);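 note: cells pre-induced with doxycycline then dosed without doxycycline; 0% = DMSO vehicle and 100% = reference activator; nearly all actives have a fitted effect of over 75% in size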
Settings: NCI-H358 eGFP-delta133p53alpha fluorescence, 24 h; stronger effect = higher value
Text: Assay Development and Screening Technology National Center for Advancing Translational Sciences (NCATS), National Institute of Health (NIH), Rockville, Maryland Cellular senescence (CS) is one of the hallmarks of aging and age-related diseases. […] Here we report the development and validation of a cell-based quantitative high throughput screening (qHTS) assay in 1,536-well format. […]
Records with an inconclusive call do not appear.
ASSAY_METRIC: activation (%)
Number only, in %; omit the unit.

// below: answered molecules
MOLECULE	activation / %
C=C(COC(=O)CC(C)C)C1Cc2cc(C(C)=O)ccc2O1 (centres undefined)	-15.2
CN1CC(=O)NC1=N	-5.08

input: // query activation value for entry O=C(/C=C/C=C/c1ccc2c(c1)OCO2)N1CCCCC1
output: -7.63

input: // query activation value for entry CC(=O)OCC(=O)[C@@]12N=C(C)O[C@@H]1C[C@H]1[C@@H]3CCC4=CC(=O)C=C[C@]4(C)[C@H]3[C@@H](O)C[C@@]12C
output: -1.69
